Experiment: Apparent volume of distribution in male BALB/c mouse at 2 mg/kg, iv
Format: ADME, organism-based
Settings: in vivo, read-out: Vz
Please go through the items and note down their Vd.
One number for each entry, in L/kg.

CC#CC(=O)N1CCC(c2c[nH]c3ncnc(-c4ccc(CNC(=O)c5ccc(C(C)(C)C)cc5)c(F)c4)c23)CC1 ... 34.8
C=CC(=O)N1CCC(CNc2ncnc3[nH]cc(C(=O)N4CC(Oc5cccc(Cl)c5)C4)c23)CC1 ... 1.52
C=CC(=O)N1CC=C(c2c[nH]c3ncnc(-c4ccc(CNC(=O)c5ccccc5)c(F)c4)c23)CC1 ... 2.79

Turning now to a further record.
[in] Entry C=CC(=O)N1CCC(CNc2ncnc3[nH]cc(C(=O)N4CC(Oc5cccc(F)c5)C4)c23)CC1 has what Vd?
[out] 1.37

---

Assay: Oral bioavailability in male BALB/c mouse
Type: ADME, organism-based
Settings: in vivo
testReadout: bioavailability (%)
Numbers only, in %.

C=CC(=O)N1CCC(CNc2ncnc3[nH]cc(C(=O)N4CC(Oc5cccc(Cl)c5)C4)c23)CC1 ... 1.82

List reported bioavailability for each of these molecules:
1. CC#CC(=O)N1CCC(c2c[nH]c3ncnc(-c4ccc(CNC(=O)c5ccc(C(C)(C)C)cc5)c(F)c4)c23)CC1
2. C=CC(=O)N1CC=C(c2c[nH]c3ncnc(-c4ccc(CNC(=O)c5ccccc5)c(F)c4)c23)CC1
3. C=CC(=O)N1CCC(CNc2ncnc3[nH]cc(C(=O)N4CC(Oc5cccc(F)c5)C4)c23)CC1

[out]
[0.78, 41, 2.58]

---

Biological target: Tyrosine-protein kinase BTK (Homo sapiens, UniProt Q06187)
Sequence (Q06187 whole entry): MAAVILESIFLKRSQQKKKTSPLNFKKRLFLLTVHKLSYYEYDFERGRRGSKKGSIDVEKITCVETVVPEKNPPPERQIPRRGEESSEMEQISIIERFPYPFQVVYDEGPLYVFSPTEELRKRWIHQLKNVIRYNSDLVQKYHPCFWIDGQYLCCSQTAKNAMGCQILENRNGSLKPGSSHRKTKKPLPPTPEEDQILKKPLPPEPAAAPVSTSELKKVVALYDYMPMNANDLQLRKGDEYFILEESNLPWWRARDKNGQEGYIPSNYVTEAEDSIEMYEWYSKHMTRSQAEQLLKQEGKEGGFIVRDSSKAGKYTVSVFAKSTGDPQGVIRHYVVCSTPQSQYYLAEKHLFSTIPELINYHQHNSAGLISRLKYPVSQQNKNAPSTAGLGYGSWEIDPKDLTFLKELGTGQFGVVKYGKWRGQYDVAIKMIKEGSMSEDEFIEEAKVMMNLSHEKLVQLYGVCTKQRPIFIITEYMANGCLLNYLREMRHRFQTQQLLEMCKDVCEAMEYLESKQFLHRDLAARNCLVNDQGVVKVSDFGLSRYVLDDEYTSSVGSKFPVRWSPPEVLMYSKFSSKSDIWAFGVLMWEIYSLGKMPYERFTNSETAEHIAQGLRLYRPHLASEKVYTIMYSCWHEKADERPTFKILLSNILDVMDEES
Test: Inhibition of BTK (unknown origin) measured by ADP-Glo assay
Give measured IC50 for each item. Keep answers brief.
Numbers only, in nM.

Recorded results for 5 compounds are shown here.
C=CC(=O)NCCNc1ncnc2[nH]cc(C(=O)N3CC(Oc4ccccc4)C3)c12 ... 92.9
C=CC(=O)N1CCC(CNc2ncnc3[nH]cc(C(=O)N4CC(OC(C)C)C4)c23)CC1 ... 23.2
C=CC(=O)N1CCC(c2c[nH]c3ncnc(-c4ccc(CNC(=O)c5ccc(C(C)(C)C)cc5)cc4)c23)CC1 ... 2.1
C=CC(=O)N1CCC(CNc2ncnc3[nH]cc(C(=O)Nc4ccccc4)c23)CC1 ... 98.7
C=CC(=O)N1CCC(CNc2ncnc3[nH]cc(C(=O)NCCc4ccccc4)c23)CC1 ... 17.3

Lab note: each compound below needs its IC50 filled in.
1. CC#CC(=O)N1CCC(c2c[nH]c3ncnc(-c4ccc(CNC(=O)c5ccc(C(C)(C)C)cc5)c(F)c4)c23)CC1
2. C=CC(=O)N1CCC(CNc2ncnc3[nH]cc(C(=O)N4CC(OCc5ccccc5)C4)c23)CC1

[out]
1. 1.2
2. 2

Working through the 8 compounds below one at a time, give IC50 for each.
1. CC#CC(=O)N1CC=C(c2c[nH]c3ncnc(-c4ccc(CNC(=O)c5ccc(C(C)(C)C)cc5)c(C)c4)c23)CC1
2. C=CC(=O)N1CC=C(c2c[nH]c3ncnc(-c4ccc(CNC(=O)c5ccccc5)c(F)c4)c23)CC1
3. C=CC(=O)N1CC=C(c2c[nH]c3ncnc(-c4ccc(CNC(=O)Nc5ccccc5)c(F)c4)c23)CC1
4. C=CC(=O)N1CCC(Nc2ncnc3[nH]cc(C(=O)N4CC(Oc5ccccc5)C4)c23)C1 (stereo not drawn)
5. CC#CC(=O)N1CCC(Nc2ncnc3[nH]cc(C(=O)N4CC(Oc5ccccc5)C4)c23)C1 (stereo not drawn)
6. C=CC(=O)N1CCC(CNc2ncnc3[nH]cc(C(=O)N4CCC(Oc5ccccc5)CC4)c23)CC1
7. CC#CC(=O)N1CCCC(Nc2ncnc3[nH]cc(C(=O)N4CC(Oc5ccccc5)C4)c23)C1 (stereo not drawn)
8. CC#CC(=O)N1CC=C(c2c[nH]c3ncnc(-c4ccc(CNC(=O)c5ccccc5)c(F)c4)c23)CC1

[out]
1. 1.1
2. 0.7
3. 0.8
4. 4.5
5. 68.5
6. 26.2
7. 153
8. 1

For each listed entry, give its IC50.
1. C=CC(=O)N1CCC(CNc2ncnc3[nH]cc(C(=O)N4CC(Oc5cccc(Cl)c5)C4)c23)CC1
2. C=CC(=O)N1CC=C(c2c[nH]c3ncnc(-c4ccc(CNC(=O)c5ccc(C(C)(C)C)cc5)c(C)c4)c23)CC1
3. C=CC(=O)N1CC=C(c2c[nH]c3ncnc(-c4ccc(CNC(=O)c5ccc(C(C)(C)C)cc5)c(F)c4)c23)CC1
4. CC#CC(=O)N1CC=C(c2c[nH]c3ncnc(-c4ccc(CNC(=O)Nc5ccccc5)c(F)c4)c23)CC1
5. C=CC(=O)N1CC=C(c2c[nH]c3ncnc(-c4ccc(CNC(=O)c5ccc(C6CC6)cc5)c(F)c4)c23)CC1

[out]
1: 0.5; 2: 1.34; 3: 1.3; 4: 1.4; 5: 1.2

Items follow; give IC50 for each.
1. CC#CC(=O)N1CCC(c2c[nH]c3ncnc(-c4ccc(CNC(=O)c5ccc(C(C)(C)C)cc5)c(C)c4)c23)CC1
2. C=CC(=O)N1CCC(CNc2ncnc3[nH]cc(C(=O)N4CC(Oc5ccc6ccccc6c5)C4)c23)CC1
3. C=CC(=O)N1CCC(c2c[nH]c3ncnc(-c4ccc(CNC(=O)c5ccc(C(C)(C)C)cc5)c(C)c4)c23)CC1
4. C=CC(=O)N1CCC(CNc2ncnc3[nH]cc(C(=O)N4CC(Oc5ccccn5)C4)c23)CC1
5. C=CC(=O)N1CCC(CNc2ncnc3[nH]cc(C(=O)N4CC(Oc5cccc(C(F)(F)F)c5)C4)c23)CC1
6. CC#CC(=O)N1CC=C(c2c[nH]c3ncnc(-c4ccc(CNC(=O)c5ccc(C(C)(C)C)cc5)c(F)c4)c23)CC1

[out]
1.4
1.4
0.8
0.8
1.6
0.8
